Target: human interleukin 6 (hIL-6) (human, UniProt P05231 30-212)
Assay: cell-based or functional assay
Form field: complete neutralization, 7TD1 cell proliferation (neutralization) assay (one value per entry).
Note: unit µg/mL is implicit; provide only the numeric part.

- BINDER: "hIL-6-binding VHH JYK-D12 (Trx/JYK-D12/E) (VHH, Expressed in E. coli as Trx/VHH/E fusion; also called JYK-D12 sh.ab1; expression vector JYR-3; not shown: Trx fusion partner of the construct Trx/JYK-D12/E) VHH: QLQLVESGGGLVQPGGSLGLSCAASGFTLAYYGIGWFRQAPGKEREGVACISSSDLSTYYADSVKGRFTISRDNAKDTVYLQMNSLKPEDTAVYYCAAGTWDLKFGYSRSNCVRSYEYDYWGQGTQVTVSS"
  REPORTED RESULT: 0.0009
- BINDER: "hIL-6-binding VHH JYK-H9 (Trx/JYK-H9/E) (VHH, not shown: large carriers) VHH: QLQLVETGGGLVQPGGSLRLSCAASGFTLDYYAIGWFRQAPGKEREGVSCLSSSDRSTYYVDSVKGRFTISRDDDKNTAYLQMNSLKPEDTATYYCAAGTWDLKWGYNISACVGSYEYDYWGQGTQVTVSS"
  REPORTED RESULT: 0.0027
- BINDER: "hIL-6-binding VHH JYK-A9 (Trx/JYK-A9/E) (VHH, not shown: large carriers) VHH: QVQLVESGGGLVQAGDSLTLSCAASGRPFSSFAMGWFRQAPGKEREFVAAITWSRGTTHYADSVKGRFTISGDNAKNTVFLQMNSLKPEDTAVYYCAAADGWKVVSTASPAYDYWGQGTQVTVSS"
  REPORTED RESULT: 2

Alright, here's another binder for you.
## Input Supply reported complete neutralization, 7TD1 cell proliferation (neutralization) assay belonging to this binder: hIL-6-binding VHH JYK-A1 (Trx/JYK-A1/E) (VHH, not shown: large carriers) VHH: QLQLAETGGGLVQPGGSLRLSCAASGFTLDYYAVGWFRQAPGKEREGISCISSSDLKTYYADSVKGRFTISRDYAKSTVSLQMNSLKPEDTGVYYCAAGTWDLKFGYNISACVGSYEYDYWDQGTQVTVSS
## Output 0.0247
